From: PubChem BioAssay (NCI)

Assay: NCI Yeast Anticancer Drug Screen. Data for the mec2-1 strain (AID 157)
Settings: S. cerevisiae mec2-1 strain, at 50.0 µM, hits give high values
Compounds without any hit were thinned out: in the full panel of roughly 79,000, 15% have a hit.
Attribute: growth inhibition
Express your answer in %, writing the number without its unit.

Could you share which growth inhibition value was measured for CCc1cc(C(C)(C)C)c(O)c(C(C)(C)C)c1 ?
9.65

Same read-out for CC(=O)OC/C=C(C)/C=C/C=C(C)/C=C/C1=C(C)CCCC1(C)C ?
-34

Same read-out for CCn1c(=O)c2c3cc(OC(C)=O)ccc3oc2c2ccc(OC(C)=O)cc21 ?
-24.4

Same read-out for CCOC(=O)C1C(C)NC(C)C(C(=O)OCC)C1C (stereo not given) ?
1.05

Same read-out for O=C1CSC(c2ccco2)N1CCN1C(=O)CSC1c1ccco1 (stereo not given) ?
-5
